# measurementParameters: buffer; pH 7.4; 200.0 µM
Threshold check on solubility kinetic: at or above 10 µg/mL gives Fulfilled, strictly below gives Not fulfilled.

# compound, assignedLabel
rows = [
    ("O=C(O)c1ccccc1C(=O)NC1Cc2ccccc2C1", "Fulfilled"),
    ("O=S(=O)(c1cccs1)N1CCN(c2ccc(F)cc2)CC1", "Not fulfilled"),
    ("COc1ccc(-c2csc(NC(=O)Cc3ccccc3)n2)cc1OC", "Not fulfilled"),
    ("S=C(NCc1ccccc1)NCc1ccc(Cl)cc1", "Not fulfilled"),
    ("O=C(O)c1ccccc1C(=O)N1CCN(S(=O)(=O)c2cccc(C(F)(F)F)c2)CC1", "Fulfilled"),
    ("O=C1Nc2ccc([N+](=O)[O-])cc2OC1CCN1CCOCC1 (stereo not given)", "Fulfilled"),
    ("CCOC(=O)c1c(C)[nH]c(C)c1C(=O)COC(=O)c1cccnc1Cl", "Fulfilled"),
    ("Cc1ccc(C(C)C)c(OCCCN2CCc3ccccc3C2)c1.Cl", "Not fulfilled"),
    ("CCc1ccccc1NC(=O)NC1CCCCCCC1", "Not fulfilled"),
    ("Cc1ccc(S(=O)(=O)N2CCN(c3ccccn3)CC2)cc1", "Not fulfilled"),
    ("COc1ccc(CCNC(=O)c2cccc3ccccc23)cc1OC", "Fulfilled"),
    ("COc1ccc(NC(=S)NCc2ccc(F)cc2)c(OC)c1", "Fulfilled"),
    ("CC(=O)Nc1ccc2c(c1)CCCC2=O", "Fulfilled"),
    ("O=C(O)c1cc(NC(=O)c2ccco2)cc(NC(=O)c2ccco2)c1", "Fulfilled"),
    ("COc1cc2nc(Cl)nc(N3CCOCC3)c2cc1OC", "Fulfilled"),
    ("COc1cccc(C(=O)N(C)C(C)c2nc3ccccc3s2)c1 (stereo not given)", "Fulfilled"),
    ("Cc1cc(C)cc(NC(=O)CN2C(=O)C3CC=CCC3C2=O)c1 (stereo not given)", "Fulfilled"),
    ("Nc1c(C(=O)N2CCOCC2)oc2ccccc12", "Fulfilled"),
    ("Cc1cc(C)nc(NC(N)=S)n1", "Fulfilled"),
    ("Cc1ccsc1C(=O)OCC(=O)N1CCN(c2ccccc2)CC1", "Fulfilled"),
    ("Cc1ccccc1-c1nc2cc(Cl)ccc2c(=O)o1", "Not fulfilled"),
    ("COc1c(C)cc(Br)cc1C(=O)Nc1ccccc1C", "Not fulfilled"),
    ("CCOc1ccccc1NC(=O)C(=O)CC(=O)c1cccc(OC)c1", "Not fulfilled"),
    ("Fc1ccccc1Oc1nc(-c2ccncc2)nc2ccccc12", "Not fulfilled"),
    ("Cc1ccc(NC(=O)C2Cc3ccccc3O/C2=N\\O)cc1C (stereo not given)", "Not fulfilled"),
]

---

Measured solubility kinetic, listed per entry for reference.
# measurementParameters: buffer; pH 7.4; 200.0 µM

# compound, unitAnnotation, measurementQualifier, solubility kinetic
data = [
    ("Cc1ccc(-c2cc(C(=O)N3CCOCC3)c3ccccc3n2)o1", "µg/mL", ">", 48.4),
    ("COc1cccc(Nc2nc(C)cc(C)c2C(N)=O)c1", "µg/mL", ">", 40.7),
    ("NC(=O)Cn1cc(C(=O)C(=O)N2CCOCC2)c2ccccc21", "µg/mL", ">", 47.3),
    ("COc1ccc(S(=O)(=O)N2CCOCC2)cc1NC(=O)CN1CCCc2ccccc21", "µg/mL", "=", 2.9),
    ("O=C(Nc1ccccc1)Nc1ccc(NC(=O)c2ccccc2O)cc1", "µg/mL", "<", 0.2),
    ("CC(=O)c1cccc(NC(=O)CNC(=O)Cc2ccccc2)c1", "µg/mL", "=", 43.7),
    ("O=C(COC(=O)c1cccnc1)Nc1cccc2ccccc12", "µg/mL", "=", 42.1),
    ("CC(C)NC(=O)c1ccccc1NC(=O)C1CC(=O)N(C(C)C)C1 (centres undefined)", "µg/mL", ">", 49.7),
    ("Cl.Nc1nc(N2CCN(c3ccccn3)CC2)nc2ccccc12", "µg/mL", "=", 54.8),
    ("O=[N+]([O-])c1ncccc1OCc1ccc(Cl)c(Cl)c1", "µg/mL", "=", 0.4),
    ("CN(C)c1nc(C(=O)O)nc(N2CCOCC2)n1", "µg/mL", "=", 36.2),
    ("O=C(CSc1ncccn1)N1CCCC1", "µg/mL", ">", 33.5),
    ("CCn1cc(C=C2C(=O)NC(=O)NC2=O)c2ccccc21", "µg/mL", "=", 1.8),
    ("c1ccc(CCNc2nc(-c3ccccn3)nc3ccccc23)cc1", "µg/mL", "=", 31.4),
    ("O=C(NCC1CCCO1)C1CC(=O)N(c2ccccc2)C1 (centres undefined)", "µg/mL", ">", 43.3),
    ("COc1ccc(Cl)cc1NS(=O)(=O)c1cn(C)nc1C", "µg/mL", ">", 47.4),
    ("Cc1ccc2nc(NCc3ccccc3)c(C#N)cc2c1", "µg/mL", "=", 2.8),
    ("CCCOc1ccc(/C=C2\\SC(N)=NC2=O)cc1OC", "µg/mL", "=", 2.5),
    ("COc1ccc2oc(-c3ccccc3)c(C(=O)N(C)C)c2c1", "µg/mL", ">", 44.3),
    ("O=C(NCc1ccco1)C1CCCN1C(=O)Nc1ccc(Cl)cc1 (centres undefined)", "µg/mL", "=", 3.4),
    ("O=C(NCCc1ccc(F)cc1)c1ccc([N+](=O)[O-])cc1", "µg/mL", "=", 4.6),
    ("O=C(c1ccc(Cl)nc1)N1CCN(C/C=C/c2ccccc2)CC1", "µg/mL", ">", 51.3),
    ("O=C(COc1ncnc2ccccc12)N1CCN(c2ccccc2)CC1", "µg/mL", ">", 52.3),
    ("O=[N+]([O-])c1ccccc1CN1CCN(Cc2ccc3ccccc3c2)CC1", "µg/mL", "=", 3.9),
]

---

# measurementParameters: buffer; pH 7.4; 200.0 µM
Measured solubility kinetic, listed per entry for reference.

# molecule, measurementQualifier, solubility kinetic [µg/mL]
records = [
    ("CC1CC(C)CN(C(=O)c2cc3ccccc3o2)C1 (centres undefined)", "=", 28.7),
    ("COc1cc(C(=O)OCC(=O)N2CCCCCC2)c([N+](=O)[O-])cc1OC", ">", 55),
    ("COc1ccc(S(=O)(=O)Nc2ccccc2C(N)=O)cc1OC", "=", 47.5),
    ("Cc1ccc(N2CC(C(=O)Nc3ccc4c(c3)OCO4)CC2=O)cc1C (centres undefined)", "=", 1.8),
    ("CC(CNC(=O)c1ccc(N)cc1)NC(=O)c1ccc(N)cc1 (centres undefined)", "=", 42.8),
    ("COc1cccc(NC(=O)c2ccccc2Br)c1", ">", 45.9),
    ("Cc1ccc(CSc2nc(N)cc(=O)[nH]2)cc1", "=", 13.1),
    ("O=C(O)C1Cc2ccccc2CN1C(=O)c1ccco1 (centres undefined)", "=", 30.7),
    ("CC(=O)c1sc(C(C)(C)C)cc1NC(=O)CCC(=O)O", ">", 44.6),
    ("CCOC(=O)c1c(C)[nH]c(C(=O)OCC(=O)NCc2ccccc2)c1C", "=", 4.5),
    ("Cc1ccccc1-n1c(=O)n(Cc2ccccc2)c(=O)c2[nH]cnc21", ">", 49.9),
    ("O=C(CSc1nnc(-c2ccncc2)o1)Nc1cc(Cl)ccc1C(=O)O", ">", 58.6),
    ("O=C(NCc1cccnc1)Nc1cccc(Cl)c1", "=", 37.2),
    ("N#C/C(=C\\c1ccccc1)C(=O)NCc1ccc(F)cc1", "=", 5.3),
    ("CC(C)(C)c1ccc(/C=C(\\C#N)C(=O)NCCN2CCOCC2)cc1", "=", 30.9),
    ("O=C(CNC(=O)c1ccc(Cl)cc1)N/N=C/c1cccnc1", ">", 47.5),
    ("Cc1ccc(CC2CC(=O)N(c3cc(Cl)ccn3)C2=O)cc1 (centres undefined)", "=", 13.7),
    ("O=C(COC(=O)/C=C/c1ccco1)NC1CCCCC1", "=", 16.3),
    ("S=C(Nc1cccnc1)Nc1ccccc1Br", ">", 46.2),
    ("O=Cc1cnc(N2CCN(Cc3ccccc3)CC2)s1", ">", 43.1),
    ("C[C@H](NC(=O)c1ccco1)C(=O)NCc1cccs1", ">", 41.7),
    ("Cc1ccccc1OCCn1ccnc1", "=", 24.5),
    ("CCCCN(C)C1CCN(C(=S)Nc2ccc(OC)cc2)CC1", ">", 50.3),
    ("Cc1cc(C)cc(C(=O)NC(=S)Nc2cccnc2)c1", "=", 8.4),
    ("O=C(CN1CCCC1)Nc1ccc([N+](=O)[O-])cc1Cl", "=", 36.2),
    ("O=c1cc(COc2ncnc3ccccc23)nc2sccn12", ">", 46.5),
    ("O=[N+]([O-])c1ccc(NCCCN2CCOCC2)c2ncccc12", "=", 2.5),
    ("CC(CN1CCCCC1)OC(=O)c1ccco1.Cl (centres undefined)", ">", 41.1),
    ("CC(=O)c1ccc(OCC(=O)NC2CCCCCC2)cc1", ">", 43.4),
    ("COc1ccc(CCC2CCNCC2)cc1.Cl", ">", 38.4),
    ("CC(C)C(=O)NC(NC1CCS(=O)(=O)C1)C(Cl)(Cl)Cl (centres undefined)", ">", 52.8),
    ("CC/C(C)=N/Oc1nc(C)cc(C)n1", "=", 28.5),
    ("CC(C)(C)c1cc(CCC(=O)NCC2CCCO2)cc(C(C)(C)C)c1O (centres undefined)", "=", 20.2),
    ("Cc1nc(SCc2cccnc2)[nH]c(=O)c1C", ">", 37.1),
    ("CC1(C)CC(NC(=O)Nc2ccc([N+](=O)[O-])cc2)CC(C)(C)N1", ">", 48.1),
    ("CCN1CCN(S(=O)(=O)c2ccc(Cl)c(C(=O)NCc3nc4ccccc4[nH]3)c2)CC1", "=", 18.8),
    ("O=c1c2ccccc2ncn1-c1cccc([N+](=O)[O-])c1", "=", 3.8),
    ("COc1ccccc1CNC(=O)C1CCCC1", ">", 35),
    ("COC(=O)c1sccc1NC(=O)c1c(Cl)cccc1Cl", "=", 0.7),
    ("COCC(=O)Nc1c(C(=O)N2CCCC2)oc2ccccc12", "=", 40.4),
    ("COc1ccc(NC(=O)CN2C(=O)COc3ccccc32)cc1OC", "=", 3),
    ("Cc1ccc(S(=O)(=O)N2C(=O)c3cccc4cccc2c34)cc1", "=", 3.7),
    ("Cc1cccc(NC(=O)CSc2nc(C3CC3)nc3ccccc23)c1", "=", 0.3),
    ("CC(=O)c1ccc(Nc2c([N+](=O)[O-])ccc3nonc23)cc1", "<", 0.2),
    ("CC(C)CC(=O)Nc1ccc(Oc2ccc3c(c2)C(=O)NC3=O)cc1", "=", 0.4),
    ("CC(C)C(C)NC(=O)Cn1cnc2c(oc3ccccc32)c1=O (centres undefined)", "=", 17.3),
    ("Cc1ccc(NC(=O)c2ccc(Cl)c(S(=O)(=O)NCc3ccco3)c2)c(O)c1", "=", 7.3),
    ("Cc1cc(Nc2cccc(Cl)c2)nc(-c2ccccc2O)n1", "=", 0.6),
    ("Cc1cccc(C(C)C)c1NC(=O)CSc1cccc[n+]1[O-]", ">", 47.5),
]
